Parameter: composite z-score. Scope: all listed entries.
molecular target: Follistatin-related protein 3 (Homo sapiens); experiment: FSTL3 binders on small-molecule microarrays, primary screen, biochemical, small-molecule microarray, 635 nm fluorescence (AID 1105); conditions: FSTL3 binding, higher = more signal;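 further: score merges emission near 667 nm and signal to noise per printed spot across three slides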
Field format: numeric only.

Solved entries (count: 2):
Request the reported composite z-score associated with CO[C@H]1COC(=O)[C@@H](C)COC(=O)[C@@H](OCc2ccccc2)C=C[C@@H]1C
-0.13

Request the reported composite z-score associated with C[C@H](ON=C1[C@H]2CCn3c(=O)n(-c4ccccc4)c(=O)n3[C@H]2[C@H](O)[C@@H]2O[C@H]12)c1cn([C@H](CO)Cc2ccccc2)nn1
0.659

***
Request the reported composite z-score associated with CO[C@@H]1COC(=O)CC=C[C@@H](C)[C@H](OC)COC(=O)[C@@H](C)COC(=O)CC=C[C@H]1C
0.734

Request the reported composite z-score associated with COC(=O)CC=C[C@@H](C)[C@@H](C=NO[C@H](C)c1cn([C@H](CO)Cc2ccccc2)nn1)OC
0.515

Request the reported composite z-score associated with COCOc1ccc(Br)cc1C(=O)[C@@H]1O[C@H]1c1cccc(OC)c1
0.16

Request the reported composite z-score associated with CC(=O)OC[C@H]1O[C@@H](ON=C(C)CCN2CCCc3nc(C)c(C)cc32)[C@H](OC(C)=O)[C@@H](OC(C)=O)[C@@H]1OC(C)=O
1.26

Request the reported composite z-score associated with COC(=O)C=CCCc1coc(C=CCNC(=O)OC)n1
1.07

Request the reported composite z-score associated with CO[C@@H]1COC(=O)[C@@H]2CCCN2C(=O)[C@@H](C)COC(=O)CC=C[C@H]1C
0.993

Request the reported composite z-score associated with CCCCC#C[C@@H]1C=C[C@H](Oc2cc(OC)c(OC)c(OC)c2)[C@@H](COC(=O)OCC)O1
-0.203

Request the reported composite z-score associated with CCCNC(=O)OC[C@H]1O[C@H](CCON=C(C)C)C=C[C@@H]1Oc1ccc(OC)cc1
-0.125

Request the reported composite z-score associated with CC(C)(C)N1C(=O)[C@H]2[C@H]3[C@H](O)[C@H](O)CC(=O)[C@@H]3CC[C@H]2C1=O
0.265

Request the reported composite z-score associated with CCC(=O)[C@@]1(O)C(=O)N2C(=C3C(=O)OCC[C@@H]31)N(Cc1ccccc1)C(C)=C(C(=O)OC)[C@H]2c1ccccc1
0.429

Request the reported composite z-score associated with CC(C)=CCCC(C)=CCON=C1C[C@@H](O)[C@@H](O)[C@@H]2[C@@H]3C(=O)N(C(C)(C)C)C(=O)[C@@H]3CC[C@H]12
0.392

Request the reported composite z-score associated with CCOC(=O)[C@H](Cc1ccccc1)NC(=O)CCC1CC(OC(=O)NCc2cccc3ccccc23)CC2(CCCC(COC(=O)NCCC(C)C)O2)O1 (stereo not given in full)
0.133

Request the reported composite z-score associated with CCOC(=O)[C@H](CC(C)C)NC(=O)CCC1CC(OC(=O)NCc2cccc3ccccc23)CC2(CCCC(COC(=O)NCCOC)O2)O1 (stereo not given in full)
1.17

Request the reported composite z-score associated with O=C1[C@H]2[C@H]3[C@H](O)[C@H](O)CC(=NOC[C@@H](O)COCc4ccco4)[C@H]3CC[C@H]2C(=O)N1Cc1ccccc1
0.404

Request the reported composite z-score associated with CCCNC(=O)OC[C@H]1O[C@H](c2ccccc2)C=C[C@@H]1Oc1ccc(OC)cc1
0.108

Request the reported composite z-score associated with CCOC(=O)[C@H](CC(C)C)NC(=O)CCC1CC(OC(=O)NCCc2ccc(F)cc2)CC2(CCCC(COC(=O)NCCC(C)C)O2)O1 (stereo not given in full)
0.27

Request the reported composite z-score associated with COc1ccc(O[C@@H]2[C@H](O)CO[C@@H]2C=Cc2ccccc2)cc1
0.367
